molecular target: Recombinant Human Anaplastic Lymphoma Kinase (Homo sapiens, UniProt Q9UM73); construct: purchased Invitrogen, Carlsbad, Calif; assay: ALK HTRF kinase assay; type: biochemical; conditions: compound at a concentration of 500 nM or 1 mM (not specified); cells shown as percentage
Sequence (Q9UM73 19-1620): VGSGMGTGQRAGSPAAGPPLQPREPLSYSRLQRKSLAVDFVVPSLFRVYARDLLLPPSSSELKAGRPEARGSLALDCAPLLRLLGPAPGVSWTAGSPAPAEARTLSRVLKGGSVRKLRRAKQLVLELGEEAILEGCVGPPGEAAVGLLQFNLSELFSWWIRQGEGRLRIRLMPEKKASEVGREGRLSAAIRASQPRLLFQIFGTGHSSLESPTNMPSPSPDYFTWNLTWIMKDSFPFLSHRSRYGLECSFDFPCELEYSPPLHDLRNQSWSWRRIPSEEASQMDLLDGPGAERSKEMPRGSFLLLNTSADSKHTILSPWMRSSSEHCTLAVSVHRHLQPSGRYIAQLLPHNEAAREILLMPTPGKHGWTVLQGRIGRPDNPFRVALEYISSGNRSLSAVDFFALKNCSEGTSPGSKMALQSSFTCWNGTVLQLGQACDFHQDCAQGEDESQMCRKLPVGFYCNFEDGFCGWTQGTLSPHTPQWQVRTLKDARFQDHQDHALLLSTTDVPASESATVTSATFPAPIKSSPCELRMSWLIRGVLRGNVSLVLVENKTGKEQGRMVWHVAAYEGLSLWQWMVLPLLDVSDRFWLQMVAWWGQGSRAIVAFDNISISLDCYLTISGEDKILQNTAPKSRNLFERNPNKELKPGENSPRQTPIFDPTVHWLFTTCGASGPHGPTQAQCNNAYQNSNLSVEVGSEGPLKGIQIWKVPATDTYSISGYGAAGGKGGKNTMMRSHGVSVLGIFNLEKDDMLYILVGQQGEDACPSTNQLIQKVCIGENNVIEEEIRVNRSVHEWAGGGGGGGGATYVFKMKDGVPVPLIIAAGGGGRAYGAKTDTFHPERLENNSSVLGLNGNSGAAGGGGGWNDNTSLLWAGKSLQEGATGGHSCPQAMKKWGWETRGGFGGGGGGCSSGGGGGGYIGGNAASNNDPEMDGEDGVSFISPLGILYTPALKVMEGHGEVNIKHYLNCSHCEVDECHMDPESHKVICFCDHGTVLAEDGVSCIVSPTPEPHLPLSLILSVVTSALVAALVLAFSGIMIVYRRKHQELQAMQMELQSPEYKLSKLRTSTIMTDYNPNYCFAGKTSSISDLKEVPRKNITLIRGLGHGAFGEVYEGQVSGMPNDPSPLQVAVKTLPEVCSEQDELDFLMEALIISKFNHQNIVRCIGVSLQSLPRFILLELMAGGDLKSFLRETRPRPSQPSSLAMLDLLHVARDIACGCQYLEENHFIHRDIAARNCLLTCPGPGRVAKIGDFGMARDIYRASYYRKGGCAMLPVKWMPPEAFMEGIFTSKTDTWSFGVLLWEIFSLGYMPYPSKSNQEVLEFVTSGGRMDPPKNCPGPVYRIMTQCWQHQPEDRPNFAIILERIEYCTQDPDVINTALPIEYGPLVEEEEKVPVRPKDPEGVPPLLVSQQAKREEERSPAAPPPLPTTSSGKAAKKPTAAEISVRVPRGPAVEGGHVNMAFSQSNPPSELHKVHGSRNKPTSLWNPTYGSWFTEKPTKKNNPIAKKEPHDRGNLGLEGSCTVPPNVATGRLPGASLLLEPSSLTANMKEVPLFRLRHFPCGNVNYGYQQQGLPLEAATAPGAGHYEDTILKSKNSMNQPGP
Where a name gives a salt, the structure may show the parent alone.
propertyName: ALK % of inhibition at a concentration of 500 nM or 1 mM (%)
Dear colleague, please return just the value in %, with no unit written.

[in] // ALK % of inhibition at a concentration of 500 nM or 1 mM lookup, key: O=C(Nc1ccc2cc1CCc1cccc(c1)Nc1ncc(Cl)c(n1)N2)c1ccc(Cl)nc1 [Example B69, bis(trifluoroacetate)]
[out] 68

[in] // ALK % of inhibition at a concentration of 500 nM or 1 mM lookup, key: O=S(=O)(Nc1ccc2cc1CCc1cccc(c1)Nc1ncc(Cl)c(n1)N2)C1CC1 [Example B158, trifluoroacetate]
[out] 71

[in] // ALK % of inhibition at a concentration of 500 nM or 1 mM lookup, key: CN(C(=O)Nc1ccc2cc1CCc1cncc(c1)Nc1ncc(Cl)c(n1)N2)[C@H]1CCN(Cc2ccccc2)C1 [Example B284]
[out] 25

[in] // ALK % of inhibition at a concentration of 500 nM or 1 mM lookup, key: Cc1ncoc1C(=O)Nc1ccc2cc1CCc1cccc(c1)Nc1ncc(Cl)c(n1)N2 [Example B78, trifluoroacetate]
[out] 44

[in] // ALK % of inhibition at a concentration of 500 nM or 1 mM lookup, key: O=C(Nc1ccc2cc1CCc1cccc(c1)Nc1ncc(Cl)c(n1)N2)c1cnc2ccccc2n1 [Example B72, bis(trifluoroacetate)]
[out] 12

[in] // ALK % of inhibition at a concentration of 500 nM or 1 mM lookup, key: O=C(NCCO)Nc1ccc2cc1CCc1cccc(c1)Nc1ncc(Cl)c(n1)N2 [Example B241, trifluoroacetate]
[out] 22

[in] // ALK % of inhibition at a concentration of 500 nM or 1 mM lookup, key: O=C(NCCN1CCCC1=O)Nc1ccc2cc1CCc1cccc(c1)Nc1ncc(Cl)c(n1)N2 [Example B257, trifluoroacetate]
[out] 14

[in] // ALK % of inhibition at a concentration of 500 nM or 1 mM lookup, key: CSc1ccccc1NC(=O)Nc1ccc2cc1CCc1cccc(c1)Nc1ncc(Cl)c(n1)N2 [Example B107, trifluoroacetate]
[out] 9.3

[in] // ALK % of inhibition at a concentration of 500 nM or 1 mM lookup, key: O=C(Nc1ccc2cc1CCc1cccc(c1)Nc1ncc(Cl)c(n1)N2)N[C@H]1CCN(c2ncccn2)C1 [Example B262, bis(trifluoroacetate)]
[out] 19

[in] // ALK % of inhibition at a concentration of 500 nM or 1 mM lookup, key: Cc1csc(NC(=O)Nc2ccc3cc2CCc2cccc(c2)Nc2ncc(Cl)c(n2)N3)n1 [Example B249]
[out] 35

[in] // ALK % of inhibition at a concentration of 500 nM or 1 mM lookup, key: COc1ccccc1NC(=O)Nc1ccc2cc1CCc1cccc(c1)Nc1ncc(Cl)c(n1)N2 [Example B102, trifluoroacetate]
[out] 54

[in] // ALK % of inhibition at a concentration of 500 nM or 1 mM lookup, key: Cc1cnc(NC(=O)Nc2ccc3cc2CCc2cccc(c2)Nc2ncc(Cl)c(n2)N3)s1 [Example B248, trifluoroacetate]
[out] 32

[in] // ALK % of inhibition at a concentration of 500 nM or 1 mM lookup, key: CCC(C)c1ccccc1NC(=O)Nc1ccc2cc1CCc1cccc(c1)Nc1ncc(Cl)c(n1)N2 (centres unmarked) [Example B126, trifluoroacetate]
[out] 6.1

[in] // ALK % of inhibition at a concentration of 500 nM or 1 mM lookup, key: O=C(Nc1ccc2cc1CCc1cccc(c1)Nc1ncc(Cl)c(n1)N2)N[C@H]1CCN(C(=O)c2cccnc2)C1 [Example B171, bis(trifluoroacetate)]
[out] 15

Hello, the source for this data is patent US8871753B2, in case you need it.
